- Assay summary: Nrf2 qHTS screen for inhibitors: Validation (AID 493153)
- Condition parameters: A549 ARE-Fluc reporter, 18-24 h; measured here: cytotoxicity max response
Inconclusive results are not listed.
In this section we review reported viability change values for a set of compounds.
Parameter: viability change

- Entry smiles: "O=[N+]([O-])c1ccc(O[C@@H]2O[C@H](CO)[C@@H](O)[C@H](O)[C@H]2F)c([N+](=O)[O-])c1"
  Parameter: "viability change"
  Reported measurement: "-9.61%"
- Entry smiles: "Nc1nc2[nH]c(=O)cnc2c(=O)[nH]1"
  Parameter: "viability change"
  Reported measurement: "-3.53%"
- Entry smiles: "NC(=O)c1ncn([C@@H]2O[C@H](CO)[C@@H](O)[C@H]2O)n1"
  Parameter: "viability change"
  Reported measurement: "7.17%"
- Entry smiles: "Brc1c(Br)c(Br)c2n[nH]nc2c1Br"
  Parameter: "viability change"
  Reported measurement: "-14.6%"
- Entry smiles: "Nc1nc2ccc(Cl)cc2c2nc(-c3ccco3)nn12"
  Parameter: "viability change"
  Reported measurement: "11.1%"

====

- Assay summary: qHTS for Inhibitors of the Functional Ribonucleoprotein Complex (vRNP) of Lassa (LASV) Arenavirus: LASV Primary Screen - GLuc reporter signal (AID 1347082); further: on the % scale 0 is the no-effect control and ±100 the full control effect; nearly all actives have a fitted effect of over 60% in size
- Condition parameters: LASV minigenome vRNP, Gaussia luciferase reporter; series mostly up to 57.5 µM
Results filed as inconclusive are left out. The source made the active and inactive calls. Calls come from the whole dose curve; tested in HEK293 reporter line.
Parameter: outcome

- Compound: "O=C(O)Cn1ccnc1"
  Parameter: "outcome"
  Reported measurement: "inactive"
- Compound: "C=CC(C)(C)c1[nH]cnc1/C=C1\\NC(=O)C(C(C)C)NC1=O (stereo not drawn)"
  Parameter: "outcome"
  Reported measurement: "inactive"
- Compound: "CC(C)=CCC[C@](C)(O[C@@H]1O[C@H](CO)[C@@H](O)[C@H](O)[C@H]1O)[C@H]1CC[C@]2(C)[C@@H]1[C@H](O)C[C@@H]1[C@@]3(C)CC[C@H](O[C@@H]4O[C@H](CO)[C@@H](O)[C@H](O)[C@H]4O[C@@H]4O[C@H](CO)[C@@H](O)[C@H](O)[C@H]4O)C(C)(C)[C@@H]3[C@@H](O)C[C@]12C"
  Parameter: "outcome"
  Reported measurement: "inactive"

====

- System name: Alpha-galactosidase (Coffea arabica) (UniProt Q42656)
- Sequence (Q42656 whole entry, looked up): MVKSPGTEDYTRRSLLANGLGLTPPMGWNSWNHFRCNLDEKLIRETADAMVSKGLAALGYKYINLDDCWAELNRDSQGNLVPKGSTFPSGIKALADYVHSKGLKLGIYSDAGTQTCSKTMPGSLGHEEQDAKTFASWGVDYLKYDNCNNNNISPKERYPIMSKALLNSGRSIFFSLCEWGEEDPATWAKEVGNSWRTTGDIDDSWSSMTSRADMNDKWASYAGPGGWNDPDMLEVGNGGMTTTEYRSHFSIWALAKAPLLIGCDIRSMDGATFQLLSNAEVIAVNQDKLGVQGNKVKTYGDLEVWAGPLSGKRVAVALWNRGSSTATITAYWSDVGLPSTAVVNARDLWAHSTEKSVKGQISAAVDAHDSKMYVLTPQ
- Assay summary: Counterscreen for Glucocerebrosidase Inhibitors: qHTS Assay for Coffee Bean alpha-Galactosidase at pH 4.5 (AID 957);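 further: plate controls were enzyme alone for no effect and no enzyme for full effect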
- Condition parameters: purified coffee bean alpha-galactosidase, fluorogenic substrate; series mostly up to 76.9 µM
- Source text: NIH Chemical Genomics Center [NCGC] NIH Molecular Libraries Screening Centers Network [MLSCN] PI Name: Zheng, Wei [NIH] […] This is a fluorogenic enzyme assay with 4-Methylumbelliferyl alpha-D-galactopyranoside as the substrate and green coffee bean […] (from Sigma-Aldrich) as the enzyme preparation. […] 4-Methyllumbelliferone, can be excited at 365 nm and emits at 440 nm which can be detected by a standard fluorescence plate reader. […]
Active and inactive are the calls of the source. Calls come from the whole dose curve; as a rule, active = well fitted curve in the direction sought with a large enough effect; inconclusive = small, poorly fitted or top-dose-only effect, or another doubt; inactive = no such curve, though single readings can be large or run the other way.
Parameter: outcome

- Entry smiles: "O=c1ccc2c(OCCCCc3ccccc3)c3ccoc3cc2o1"
  Reported measurement: "inactive"
- Entry smiles: "Cn1c(=O)c2[nH]c(C3CCCC3)nc2n(C)c1=O"
  Reported measurement: "inactive"
- Entry smiles: "Nc1cc(Cl)c(NC2=NCCN2)c(Cl)c1"
  Reported measurement: "inactive"
- Entry smiles: "Cc1ccc([N+](=O)[O-])cc1S(=O)(=O)N(C)C"
  Reported measurement: "inactive"
- Entry smiles: "NC(N)=[N+]1CCc2ccccc2C1"
  Reported measurement: "inactive"
- Entry smiles: "Cn1cnc2c(NCc3ccccc3)nc(NCCO)nc21"
  Reported measurement: "inactive"
- Entry smiles: "Oc1ccc(Cn2cc[nH]c2=S)cc1"
  Reported measurement: "inactive"
- Entry smiles: "CN(C)c1nc(N)c(C(=O)N=C(N)N)nc1Cl"
  Reported measurement: "inactive"
- Entry smiles: "COc1ccc2c(c1)c(CC(=O)O)c(C)n2C(=O)c1ccccc1"
  Reported measurement: "inactive"
- Entry smiles: "NCCCCN=C(N)N"
  Reported measurement: "inactive"
- Entry smiles: "Cc1ccc2c(c1)C(N1CCN(C)CC1)=Nc1cccnc1N2"
  Reported measurement: "inactive"
- Entry smiles: "CC(C)(C)c1o[nH]c(=O)c1C[C@H](N)C(=O)O"
  Reported measurement: "inactive"
- Entry smiles: "O=C(Nc1cccc(C(=O)Nc2ccc(S(=O)(=O)O)c3cc(S(=O)(=O)O)cc(S(=O)(=O)O)c23)c1)Nc1cccc(C(=O)Nc2ccc(S(=O)(=O)O)c3cc(S(=O)(=O)O)cc(S(=O)(=O)O)c23)c1"
  Reported measurement: "inactive"
- Entry smiles: "C[N+](C)(C)CC=O"
  Reported measurement: "inactive"
- Entry smiles: "Cc1cc(NC(=O)Nc2ccc3c(ccn3C)c2)sn1"
  Reported measurement: "inactive"
- Entry smiles: "O=C(O)c1ccccc1Nc1ccccc1"
  Reported measurement: "inactive"
- Entry smiles: "CCCN(CC1CC1)c1nc(C)nc(Nc2c(Cl)cc(Cl)cc2Cl)c1Cl"
  Reported measurement: "inactive"
- Entry smiles: "CP(=O)(O)CCCN"
  Reported measurement: "inactive"
- Entry smiles: "CNc1cc(NS(=O)(=O)c2ccc(N)cc2)nc(NC)n1"
  Reported measurement: "inactive"
- Entry smiles: "O=C1Nc2ccc(I)cc2/C1=C/c1cc(Br)c(O)c(Br)c1"
  Reported measurement: "inactive"
- Entry smiles: "Cc1nc2c(OCc3ccccc3)cccn2c1CC#N"
  Reported measurement: "inactive"
- Entry smiles: "N[C@@H](Cc1c[nH]c2ccccc12)C(=O)O"
  Reported measurement: "inactive"
- Entry smiles: "C[C@@H](NC(=O)/C(C#N)=C/c1ccc(O)c(O)c1)c1ccccc1"
  Reported measurement: "inactive"
- Entry smiles: "C[C@H](Cc1ccc(O)c(O)c1)[C@@H](C)Cc1ccc(O)c(O)c1"
  Reported measurement: "inactive"
- Entry smiles: "O=c1onc2n1-c1cc(Br)ccc1OC2"
  Reported measurement: "inactive"
